System: KM12 colon
experimentNotes: NCI tumour cell line growth inhibition, 48 h
A collection of compounds and their measured TGI

// known answers, use as guide
Need TGI of COC(=O)N[C@H](C(=O)O)C(C)O[Si](C)(C)C(C)(C)C (stereo not given in full) , thanks.
> 100 µM

Also O=C1N2Cc3c4ccc5c3CN3C(=O)N6Cc7c(ccc(c7CN1C6(c1ccccc1)C23c1ccccc1)OCCOCCNCCOCCO4)OCCOCCNCCOCCO5 (stereo not given) , if possible.
> 100 µM

Also C=C1C(O)C[C@H](OC(C)=O)[C@]2(C)C1C(OC(C)=O)[C@]1(C(C)(C)O)CC(O)C(C)=C1[C@@H](OC(=O)c1ccccc1)C2OC(C)=O (stereo not given in full) , if possible.
> 10 µM

Also "O=S(=O)(NNc1ccccc1)c1ccccc1" , if possible.
18.1 µM

Also CC(=O)NC(C)(C)C1CCC(C)=C(c2ccccc2)C1 (stereo not given) , if possible.
> 100 µM

Also Cc1ccc(C2=C(C#N)C(N)OC3=C2COc2ccccc23)cc1 (stereo not given) , if possible.
> 100 µM

Continuing:
Need TGI of "COCc1c(-c2cc3cc(C)cc(OC)c3s2)c2c(N)ncnn2c1CN1CCNC(=O)C1" , thanks.
77.6 µM

Also "Cc1cc2c(cc1Cl)S/C(=C/C(=O)O)C(Nc1ccc3ncsc3c1)=NS2(=O)=O" , if possible.
> 48 µM

Also "C=C1C(=O)O[C@@H]2[C@H](O)[C@@H](C)[C@@H]3C=CC(=O)[C@@]3(C)[C@@H](OC(=O)/C(C)=C/C)[C@H]12" , if possible.
7.21 µM

Also "Cc1n[nH]c(=O)n1/N=C\c1ccccc1" , if possible.
> 100 µM

Also NCC(O)CNC(=O)c1ccc(-c2ccc(-c3ccc(C(=O)NCC(O)CN)cc3)o2)cc1 (stereo not given) , if possible.
> 100 µM

Also "COC(=O)[C@H](Cc1cnc[nH]1)NC(=O)[C@@H](NC(=O)Nc1cc(C(F)(F)F)cc(C(F)(F)F)c1)C(C)C" , if possible.
35.3 µM

Also "COc1cc2c3c(n(C)c(=O)c2cc1OC)-c1cc2c(cc1/C3=C\CCCI)OCO2" , if possible.
> 100 µM

Also "CCN(CC)CCCNc1cc(OC)cc2nc3cc(Cl)ccc3nc12" , if possible.
3.43 µM

Also "Clc1cccc(NN=Nc2ccc(-c3nc4ccccc4s3)cc2)c1" , if possible.
> 100 µM

Also "COC(=O)N/N=C(\C)c1c(O)cc(C)oc1=O" , if possible.
> 100 µM

Also "Cc1cc(S(=O)(=O)Nc2nnc3cnc4ccccc4n23)c(S)cc1Cl" , if possible.
> 100 µM

Also "CC1(C)CNc2cc(NC(=O)c3cccnc3NCc3ccncc3)ccc21" , if possible.
> 100 µM

Also CC1/C(=N\O)CC(c2ccccc2)N(C)C1c1ccccc1 (stereo not given) , if possible.
> 100 µM

Also CCOC(=O)C(Cc1ccc(OC(=O)OC(C)(C)C)cc1)NC(=O)OC(C)(C)C (stereo not given) , if possible.
> 100 µM

Reference source: PubChem BioAssay (NCI)
